These data points were gathered from ChEMBL document CHEMBL3297705.

Experiment: Cmax in NCR nude mouse at 100 mg/kg, po
Type: ADME, organism-based
Parameters: dose 100 mg/kg, route oral
Conditions: in vivo
readout.name: Cmax (µM)
Your answer should be a plain number; it is taken to be in µM.

Q: Please report the measured Cmax for `O=C(N[C@H](CO)c1ccc(Cl)c(F)c1)N1CCc2cnc(NC3CCOCC3)nc2C1`
Result: 9.82

---

Test: Cmax in cynomolgus monkey at 3 mg/kg, po
Format: ADME, organism-based, Macaca fascicularis
Parameters: dose 3 mg/kg, route oral
Details: in vivo
readout.name: Cmax (nM)
Output spec: scalar in nM, unitless text.

Q: Note Cmax for the compound shown: `O=C(N[C@H](CO)c1ccc(Cl)c(F)c1)N1CCc2cnc(NC3CCOCC3)nc2C1`
Result: 160

---

Assay: Cmax in Sprague-Dawley rat at 5 mg/kg, po
Assay type: ADME, organism-based
Set-up: dose 5 mg/kg, route oral
Settings: in vivo
readout.name: Cmax (nM)
Quick reminder: number only, in nM, skip the unit.

Q: Specify reported Cmax for the molecule shown: `O=C(N[C@H](CO)c1ccc(Cl)c(F)c1)N1CCc2cnc(NC3CCOCC3)nc2C1`
Result: 90

---

Target: Mitogen-activated protein kinase 1 (Homo sapiens)
Sequence (P28482 whole entry): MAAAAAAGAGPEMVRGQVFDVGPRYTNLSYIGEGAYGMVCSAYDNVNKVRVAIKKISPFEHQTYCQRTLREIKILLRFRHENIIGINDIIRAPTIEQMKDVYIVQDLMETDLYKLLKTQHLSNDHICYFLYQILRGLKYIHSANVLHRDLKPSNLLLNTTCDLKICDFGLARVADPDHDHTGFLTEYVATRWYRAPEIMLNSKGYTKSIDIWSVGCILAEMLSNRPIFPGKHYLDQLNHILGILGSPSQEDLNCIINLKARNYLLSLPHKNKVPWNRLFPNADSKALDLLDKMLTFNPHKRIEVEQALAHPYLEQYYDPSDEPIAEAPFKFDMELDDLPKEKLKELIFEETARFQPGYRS
// returns not met unless IC50 is strictly below 4 nM, in which case met

smiles.text: O=C(N[C@H](CO)c1ccc(F)c(Cl)c1)N1CCc2cnc(N[C@H]3CC[C@H](O)C3)nc2C1
label.class: met
--
smiles.text: CC(C)Nc1ncc2c(n1)CN(C(=O)NCc1cccc(F)c1)CC2
label.class: not met
--
smiles.text: O=C(N[C@H](CO)c1ccc(F)c(Cl)c1)N1CCc2cnc(NCCO)nc2C1
label.class: not met
--
smiles.text: COCCOC[C@@H](NC(=O)N1CCc2cnc(NC(C)C)nc2C1)c1ccc(F)c(Cl)c1
label.class: not met
--
smiles.text: CC(C)Nc1ncc2c(n1)CN(C(=O)NCc1ccc(Cl)cc1)CC2
label.class: not met

Q: IC50 strictly < 4 nM for this compound? `C[C@@H](NC(=O)N1CCc2cnc(NC3CCOCC3)nc2C1)c1ccc(Cl)c(F)c1`
Result: met

Q: Record `CC(=O)Nc1ncc2c(n1)CN(C(=O)N[C@H](CO)c1ccc(F)c(Cl)c1)CC2` : is its IC50 strictly below 4 nM?
Result: not met

Q: Hello, I'm reviewing records and need to know if IC50 of `COC[C@@H](NC(=O)N1CCc2cnc(NC(C)C)nc2C1)c1ccc(F)c(Cl)c1` is below 4 nM. Could you check?
Result: not met

Q: Find out if reported IC50 for `Cc1cc(Nc2ncc3c(n2)CN(C(=O)N[C@H](C)c2ccc(Cl)c(Cl)c2)CC3)ccn1` is less than 4 nM
Result: met

Q: Just wondering, is IC50 of `CC(C)Nc1ncc2c(n1)CN(C(=O)N[C@H](CNCCO)c1ccc(F)c(Cl)c1)CC2` below 4 nM?
Result: not met

Q: Does `CCNc1ncc2c(n1)CN(C(=O)N[C@H](CO)c1ccc(F)c(Cl)c1)CC2` have IC50 strictly under 4 nM?
Result: not met

Q: Please let me know if `O=C(N[C@H](CO)c1ccc(Cl)c(Cl)c1)N1CCc2cnc(NC3CCOCC3)nc2C1` shows IC50 below 4 nM.
Result: met

---

Experiment: Tmax in Sprague-Dawley rat at 5 mg/kg, po
Assay type: ADME, organism-based
Parameters: dose 5 mg/kg, route oral
Settings: in vivo
readout.name: Tmax
Your answer should be a number followed by the unit of measure.

Q: Please indicate Tmax recorded for `O=C(N[C@H](CO)c1ccc(Cl)c(F)c1)N1CCc2cnc(NC3CCOCC3)nc2C1`
Result: 19.8 min
